Test system: OVCAR-8 ovarian
Measurement description: NCI tumour cell line growth inhibition, 48 h
Catalogue of compounds with associated TGI

Known results for compounds:
compound=Nc1c(Cl)ncnc1N[C@@H]1C[C@H]1CO reported_endpoint=TGI value="> 100 µM"
compound=O=C(O)c1ccc(S(=O)(=O)c2ccccc2[N+](=O)[O-])cc1 reported_endpoint=TGI value="> 10 µM"
compound=Cc1cn2c(/C=C3\C(=O)N(C)c4ccc(O)cc43)c(C)nc2s1 reported_endpoint=TGI value="> 100 µM"
compound="C=CCNC(=O)N(CCC)CCCCC(NC(C)=O)C(=O)NCc1ccccc1 (configuration not stated)" reported_endpoint=TGI value="> 100 µM"
compound=Cn1cc(C2=C(c3cn(CCCCCN)c4ccccc34)C(=O)NC2=O)c2ccccc21 reported_endpoint=TGI value="> 25 µM"
compound=COc1cc2cccc(N=Cc3cccc(OC)c3OC(C)C)c2cc1OC reported_endpoint=TGI value="53.1 µM"

Entry `NC1=NS(=O)(=O)Nc2nc(-c3ccc([N+](=O)[O-])cc3)[nH]c21` ; TGI = > 100 µM

TGI reading for Cc1cc(C2CC(O)C(CO)O2)cc2c(=O)[nH]c(N)nc12 (configuration not stated) : > 100 µM

Entry COC(=O)C1=CC(=O)OC1(OO)c1ccccc1 (configuration not stated) — recorded TGI = > 100 µM
